molecular target: SARS-CoV-2 NSP3 macrodomain (Mac1) (Severe acute respiratory syndrome coronavirus 2, UniProt P0DTD1); assay: biochemical; assay type: binding; conditions: SARS CoV-2 macrodomain HTRF assay, dose-response
parameter: Hill slope

{"smiles.str": "Cc1c[nH]c2ncnc(NCC3(O)CCC3)c12", "parameter": "Hill slope", "recorded.value": 1.0}

Enquiry: Can you look up the measured Hill slope of `CC(C)(O)[C@@H]1CCCN1c1ncnc2[nH]ccc12` for me?
Return: 1.6

Enquiry: Also check `Cc1c[nH]c2ncnc(NCC3(O)CCCC3)c12`
Return: 1.1

Enquiry: Also check `Cc1c[nH]c2ncnc(NCC(C)(C)O)c12`
Return: 1.0

###

Below, each entry is listed alongside its reported PanDDA run, TFA/DMSO background map: 1-BDC.
target: SARS-CoV-2 NSP3 macrodomain (Mac1) (Severe acute respiratory syndrome coronavirus 2, UniProt P0DTD1); type: binding; conditions: crystal soak 10 mM; TFA/DMSO background map

Recorded PanDDA run, TFA/DMSO background map: 1-BDC, per entry:
{"molecule": "OCC1CC2(CCC2)CN1c1ncnc2[nH]ccc12 (stereo not shown)", "recorded.value": 0.26}
{"molecule": "CC(C)(O)[C@@H]1CCCN1c1ncnc2[nH]ccc12", "recorded.value": 0.12}
{"molecule": "O=C(O)C(F)(F)F.OC[C@@H]1CC2(CC2)CN1c1ncnc2[nH]ccc12", "recorded.value": 0.23}
{"molecule": "OCC1CC2(CCCCC2)CN1c1ncnc2[nH]ccc12 (stereo not shown)", "recorded.value": 0.25}

Enquiry: Can you look up the measured PanDDA run, TFA/DMSO background map: 1-BDC of OCC(Cc1cncs1)Nc1ncnc2[nH]ccc12 (stereo not shown) for me?
Return: 0.1

Enquiry: Also check OCC1CC2(CCOCC2)CN1c1ncnc2[nH]ccc12 (stereo not shown)
Return: 0.15

Enquiry: Also check CN(C)CC(CO)Nc1ncnc2[nH]ccc12 (stereo not shown)
Return: 0.13

Enquiry: Also check `O[C@H]1CC[C@@H]2CCN(c3ncnc4[nH]ccc34)[C@@H]21`
Return: 0.15

Enquiry: Also check OCC(Nc1ncnc2[nH]ccc12)C1CCC1 (stereo not shown)
Return: 0.1

Enquiry: Also check OCC(CC1CCCC1)Nc1ncnc2[nH]ccc12 (stereo not shown)
Return: 0.1

###

target: SARS-CoV-2 NSP3 macrodomain (Mac1) (Severe acute respiratory syndrome coronavirus 2, UniProt P0DTD1); test: biochemical; format: binding; details: SARS CoV-2 macrodomain HTRF assay
Returns: string. Value is Satisfied if measured Ligand efficiency (binding enery per heavy atom) is below 0.3, and Not satisfied if it is greater than or equal to it.

Take a look at these entries with their results.
{"compound": "Cc1c[nH]c2ncnc(NCC3(O)CCC(C)CC3)c12 (stereo not drawn) [AVI-4331]", "discrete.label": "Satisfied"}
{"compound": "Cc1c[nH]c2ncnc(NCC3(O)CCCC3)c12 [AVI-3760]", "discrete.label": "Not satisfied"}
{"compound": "CCC(CC)(CO)Nc1ncnc2[nH]ccc12 [AVI-3695]", "discrete.label": "Not satisfied"}
{"compound": "O=C(O)C(F)(F)F.OC1([C@H]2CCCN2c2ncnc3[nH]ccc23)Cc2ccccc2C1 [AVI-3731]", "discrete.label": "Not satisfied"}
{"compound": "O=C(O)C(F)(F)F.OCC1(Nc2ncnc3[nH]ccc23)CCC1 [AVI-3670]", "discrete.label": "Not satisfied"}
{"compound": "OC1(CNc2ncnc3[nH]ccc23)CC2CCC1CC2 (stereo not drawn) [AVI-4320]", "discrete.label": "Satisfied"}
{"compound": "CC1(C)CCN(c2ncnc3[nH]ccc23)C(CO)C1 (stereo not drawn) [AVI-5994]", "discrete.label": "Not satisfied"}
{"compound": "CC(Nc1ncnc2[nH]ccc12)C1(O)CCCCC1 (stereo not drawn) [AVI-4321]", "discrete.label": "Not satisfied"}

Enquiry: Take the compound CC(C)(O)C1C2CCCCC2CN1c1ncnc2[nH]ccc12 (stereo not drawn) [AVI-4127] and say whether its Ligand efficiency (binding enery per heavy atom) is less than 0.3.
Return: Satisfied

Enquiry: Also check OC1(CNc2ncnc3[nH]ccc23)CCCC(C(F)(F)F)C1 (stereo not drawn) [AVI-4309]
Return: Satisfied

Enquiry: Also check CC(C)(O)[C@H]1CCCN1c1ncnc2[nH]ccc12 [AVI-607]
Return: Not satisfied
